Numbers sourced from ChEMBL document CHEMBL4354806.

- targetEntity: Integrin alpha-V/beta-6 (Homo sapiens, UniProt P06756+P18564)
- assayMethodText: Inhibition of recombinant human integrin alphaV (31 to 992 residues) beta6 (22 to 707 residues) expressed in CHO cells preincubated for 15 mins followed by Cy3B-RGD probe addition and measured after 2 hrs by fluorescence polarization assay
observable: IC50 (nM)
Give bare numbers, in nM.

>>> measured("O=C(O)CC(Nc1ccc(OCCc2ccc3c(n2)NCCC3)cn1)c1ccc(Oc2ccccc2)cc1 (racemic)")
12.6

Look at each compound and report its IC50.
1. O=C(O)CC(Nc1ccc(OCCc2ccc3c(n2)NCCC3)cn1)c1cccc(Br)c1 (racemic)
2. O=C(O)CC(Nc1ncc(OCCc2ccc3c(n2)NCCC3)cn1)c1ccc(Cl)cc1 (racemic)
3. O=C(O)CC(Cc1ccc(OCCc2ccc3c(n2)NCCC3)cc1)c1ccccc1 (racemic)

-- reply
1: 31.6; 2: 126; 3: 1260

---

- assayMethodText: Clearance in CD rat at 1 mg/kg, iv and 1 mg/kg, po measured up to 24 hrs by LC-MS/MS analysis
- Format: ADME, organism-based
- experimentalContext: in vivo
observable: clearance
Note: state the figure and append the unit.

-- ask Look up and state reported clearance for O=C(O)CC(Nc1ccc(OCCc2ccc3c(n2)NCCC3)cn1)c1cccc(C2CC2)c1 (racemic)
-- reply 8 mL/min/kg

---

- assayMethodText: Oral bioavailability in CD rat at 1 mg/kg administered via gavage up to 24 hrs by LC-MS/MS analysis
- Format: ADME, organism-based
- experimentalContext: in vivo
observable: bioavailability (%)
One number for each entry, in %.

-- ask Entry O=C(O)CC(Nc1ccc(OCCc2ccc3c(n2)NCCC3)cn1)c1cccc(C2CC2)c1 (racemic) needs its bioavailability filled in; supply it.
-- reply 98

---

- targetEntity: Integrin alpha-V/beta-3 (Homo sapiens, UniProt P05106+P06756)
- assayMethodText: Inhibition of recombinant human integrin alphaV (31 to 992 residues) beta3 (27 to 718 residues) expressed in CHO cells preincubated for 15 mins followed by Cy3B-RGD probe addition and measured after 2 hrs by fluorescence polarization assay
observable: pIC50
Numbers only, as −log10 of the molar value.

As a guide, the following entries are already answered.
>>> measured("O=C(O)C[C@@H](Nc1ccc(OCCc2ccc3c(n2)NCCC3)nn1)c1cccc(Cl)c1")
6.80
>>> measured("O=C(O)CC(Nc1ccc(OCCc2ccc3c(n2)NCCC3)cn1)c1cccc(Cl)c1 (racemic)")
8.20
>>> measured("O=C(O)CC(Nc1cnc(OCCc2ccc3c(n2)NCCC3)cn1)c1cccc(Cl)c1 (racemic)")
5.30
>>> measured("O=C(O)C[C@H](Nc1ccc(OCCc2ccc3c(n2)NCCC3)nn1)c1cccc(Cl)c1")
9.10

# evaluate next
-- ask Specify measured pIC50 for O=C(O)CC(Nc1cnc(OCCc2ccc3c(n2)NCCC3)nc1)c1cccc(Cl)c1 (racemic) .
-- reply 7.30

---

- targetEntity: Integrin alpha-V/beta-6 (Homo sapiens, UniProt P06756+P18564)
- assayMethodText: Inhibition of recombinant human integrin alphaV (31 to 992 residues) beta6 (22 to 707 residues) expressed in CHO cells preincubated for 15 mins followed by Cy3B-RGD probe addition and measured after 2 hrs by fluorescence polarization assay
Record form. Attribute: IC50. Fill in for each entry.
One number for each entry, in nM.

>>> measured("O=C(O)CC(Nc1cnc(OCCc2ccc3c(n2)NCCC3)nc1)c1cccc(Cl)c1 (racemic)")
631
>>> measured("O=C(O)CC(Nc1cnc(OCCc2ccc3c(n2)NCCC3)cn1)c1ccc(Cl)cc1 (racemic)")
19500

Below is a list of molecules. For each, state its recorded IC50.
1. O=C(O)CC(Nc1ccc(OCCc2ccc3c(n2)NCCC3)cn1)c1cccc(C2CC2)c1 (racemic)
2. O=C(O)CC(Nc1cnc(OCCc2ccc3c(n2)NCCC3)nc1)c1ccc(Cl)cc1 (racemic)
3. O=C(O)CC(Nc1ccc(OCCc2ccc3c(n2)NCCC3)nn1)c1cccc(Cl)c1 (racemic)
4. O=C(O)CC(Nc1ccc(OCCc2ccc3c(n2)NCCC3)cn1)c1ccc(C(F)(F)F)cc1 (racemic)
5. O=C(O)CC(Nc1ccc(OCCc2ccc3c(n2)NCCC3)nn1)c1ccc(Cl)cc1 (racemic)
6. O=C(O)CC(Nc1ccc(OCCc2ccc3c(n2)NCCC3)cn1)c1cc(C2CC2)cc(C2CC2)c1 (racemic)

-- reply
15.8
251
20
79.4
25.1
316

Respectfully, I request IC50 for each entry included below.
1. O=C(O)CC(Nc1ccc(OCCc2ccc3c(n2)NCCC3)nc1)c1ccc(Cl)cc1 (racemic)
2. O=C(O)CC(Nc1ccc(OCCc2ccc3c(n2)NCCC3)cn1)c1ccc(CN2CCOCC2)cc1 (racemic)
3. O=C(O)CC(Nc1ccc(OCCc2ccc3c(n2)NCCC3)cc1)c1cccc(F)c1 (racemic)

-- reply
1: 1000; 2: 31.6; 3: 100

---

- targetEntity: Integrin alpha-V/beta-3 (Homo sapiens, UniProt P05106+P06756)
- assayMethodText: Inhibition of recombinant human integrin alphaV (31 to 992 residues) beta3 (27 to 718 residues) expressed in CHO cells preincubated for 15 mins followed by Cy3B-RGD probe addition and measured after 2 hrs by fluorescence polarization assay
pIC50: −log10 of the molar value.
If the reported pIC50 equals or exceeds 8, assign yes (1). If not, assign no (0).

>>> grouplabel("O=C(O)CC(Nc1ccc(OCCc2ccc3c(n2)NCCC3)nc1)c1ccc(Cl)cc1 (racemic)")
"no (0)"

-- ask I'd appreciate it if you could say whether O=C(O)CC(Nc1ccc(OCCc2ccc3c(n2)NCCC3)cn1)c1cccc(CN2CCOCC2)c1 (racemic) has pIC50 at least equal to 8.
-- reply yes (1)

-- ask Kindly determine if pIC50 recorded for O=C(O)CC(Nc1ccc(OCCc2ccc3c(n2)NCCC3)nn1)c1cccc(Cl)c1 (racemic) is above or exactly 8.
-- reply yes (1)

-- ask Quick check: does O=C(O)CC(Nc1ccc(OCCc2ccc3c(n2)NCCC3)cc1)c1cccc(F)c1 (racemic) have pIC50 greater than or equal to 8?
-- reply yes (1)

-- ask Textbook exercise: given the entry O=C(O)CC(Nc1ccc(OCCc2ccc3c(n2)NCCC3)cn1)c1ccc(Oc2ccccc2)cc1 (racemic) , state whether its pIC50 is greater than or equal to 8.
-- reply yes (1)

-- ask Does the reported pIC50 for O=C(O)CC(Nc1ccc(OCCc2ccc3c(n2)NCCC3)cn1)c1cccc(Br)c1 (racemic) fall at or above the 8 mark?
-- reply yes (1)

-- ask Dear colleague, could you confirm whether O=C(O)CC(Nc1ncc(OCCc2ccc3c(n2)NCCC3)cn1)c1ccc(Cl)cc1 (racemic) has pIC50 at or above 8?
-- reply yes (1)

-- ask Quick check, pIC50 >= 8? O=C(O)CC(Nc1ccc(OCCc2ccc3c(n2)NCCC3)cn1)c1cc(C2CC2)cc(C2CC2)c1 (racemic)
-- reply no (0)

-- ask Kindly determine if pIC50 recorded for O=C(O)CC(Nc1ccc(OCCc2ccc3c(n2)NCCC3)cn1)c1cccc(C2CC2)c1 (racemic) is above or exactly 8.
-- reply yes (1)

-- ask Decide: is the reported value of pIC50 for O=C(O)CC(Cc1ccc(OCCc2ccc3c(n2)NCCC3)cc1)c1ccccc1 (racemic) equal to or greater than 8?
-- reply yes (1)

-- ask # bool: pIC50 of O=C(O)CC(Nc1cnc(OCCc2ccc3c(n2)NCCC3)cn1)c1ccc(Cl)cc1 (racemic) >= 8
-- reply no (0)

-- ask Tell me whether pIC50 is at least 8 here: O=C(O)CC(Nc1ccc(OCCc2ccc3c(n2)NCCC3)nn1)c1ccc(Cl)cc1 (racemic)
-- reply yes (1)

-- ask Item O=C(O)CC(Nc1ccc(OCCc2ccc3c(n2)NCCC3)cn1)c1cccc(F)c1 (racemic) with pIC50 of 8 or above?
-- reply yes (1)

-- ask Is the recorded value of pIC50 equal to or greater than 8 for this compound? O=C(O)CC(Nc1ncc(OCCc2ccc3c(n2)NCCC3)cn1)c1cccc(Cl)c1 (racemic)
-- reply yes (1)

-- ask Check if pIC50 >= 8 (inclusive). Item: O=C(O)CC(Nc1ccc(OCCc2ccc3c(n2)NCCC3)cn1)c1ccc(CN2CCOCC2)cc1 (racemic)
-- reply yes (1)

-- ask Quick check, pIC50 >= 8? O=C(O)CC(Nc1ccc(OCCc2ccc3c(n2)NCCC3)cn1)c1ccc(Cl)cc1 (racemic)
-- reply yes (1)

---

- assayMethodText: Half life in CD rat at 1 mg/kg, iv and 1 mg/kg, po measured up to 24 hrs by LC-MS/MS analysis
- Format: ADME, organism-based
- experimentalContext: in vivo
observable: half-life
Include the unit right after the number.

-- ask # return recorded half-life for entry O=C(O)CC(Nc1ccc(OCCc2ccc3c(n2)NCCC3)cn1)c1cccc(C2CC2)c1 (racemic)
-- reply 1.8 h
